Test: Therapeutic index, ratio of cytotoxicity/antiplasmodial activity
Assay type: cell-based
Settings: human, KB cells; read-out: Ratio IC50
experimental.endpoint: selectivity ratio

>>> readout_value("CC(C)(CN1CN(C(Cc2ccccc2)C(=O)O)CSC1=S)CN1CN(C(Cc2ccccc2)C(=O)O)CSC1=S (stereo not given)")
0.2
>>> readout_value("CC(C)(CN1CN(CC(=O)O)CSC1=S)CN1CN(CC(=O)O)CSC1=S")
1.3
>>> readout_value("O=C(O)CC(C(=O)O)N1CSC(=S)N(CCCCCCN2CN(C(CC(=O)O)C(=O)O)CSC2=S)C1 (stereo not given)")
0.9
>>> readout_value("CSCCC(C(=O)O)N1CSC(=S)N(CCCCCCN2CN(C(CCSC)C(=O)O)CSC2=S)C1 (stereo not given)")
3.7
>>> readout_value("O=C(O)C(Cc1ccccc1)N1CSC(=S)N(CCCCCCN2CN(C(Cc3ccccc3)C(=O)O)CSC2=S)C1 (stereo not given)")
0.6

// provenance: ChEMBL document CHEMBL1139001
